Assay: IV pharmacokinetics in rat
Type: in vivo, Wistar Han Rats
Conditions: Wistar Han, plasma, IV 1 mg/kg
assay-metric: half-life
The number alone won't do; follow it with the unit.

Q: Need half-life, item Cn1nc(NS(C)(=O)=O)c2c(Cl)ccc(-n3c([C@H](Cc4cc(F)cc(F)c4)NC(=O)Cn4nc(C(F)F)c5c4C(F)(F)[C@@H]4C[C@H]54)nc4nc(OCCC(F)(F)F)ccc4c3=O)c21 (atropisomer, axis not shown; (P)) [Example 1]
Result: 17.4 h

---

Assay: IV pharmacokinetics in monkey
Format: in vivo, Cynomolgus monkeys
Settings: cynomolgus monkey, plasma; Monkey, IV 1 mg/kg
assay-metric: half-life

Q: Bench note: what half-life did Cn1nc(NS(C)(=O)=O)c2c(Cl)ccc(-n3c([C@H](Cc4cc(F)cc(F)c4)NC(=O)Cn4nc(C(F)F)c5c4C(F)(F)[C@@H]4C[C@H]54)nc4nc(OCCC(F)(F)F)ccc4c3=O)c21 (atropisomer, axis not shown; (P)) show?
Result: 3 h
